Measured Henry's Law constant, listed per entry.
- testProtocol: Henry's Law constant (molality scale); of the first substance listed, at infinite dilution; mn = molality of the nth substance listed, in mol/kg
- studyConditions: 331.15 K; Liquid; Chromatography; m1 = 0
Please give a number only; it is taken to be in kPa·kg/mol.

{"molecule": "ClC(Br)Br [chlorodibromomethane] + O", "Henry's Law constant / kPa·kg/mol": 536}
{"molecule": "c1ccccc1 [benzene] + O", "Henry's Law constant / kPa·kg/mol": 2240}
{"molecule": "CCc1ccccc1 [ethylbenzene] + O", "Henry's Law constant / kPa·kg/mol": 1830}

Supply recorded Henry's Law constant for Clc1cccc(Cl)c1 [1,3-dichlorobenzene] + O here.
768

Supply recorded Henry's Law constant for Cc1ccccc1C [1,2-dimethylbenzene] + O here.
1360

Supply recorded Henry's Law constant for Cl/C=C/CCl [(E)-1,3-dichloro-1-propene] + O here.
929

---

- testProtocol: Henry's Law constant (molality scale); of the first substance listed, at infinite dilution; mn = molality of the nth substance listed, in mol/kg
- studyConditions: 313.15 K; Liquid; Chromatography; m1 = 0
propertyLabel: Henry's Law constant
A complete answer gives the number followed by the unit.

{"compound": "Cc1ccc(C)cc1 [1,4-dimethylbenzene] + O", "Henry's Law constant": "1170 kPa·kg/mol"}
{"compound": "Clc1ccc(Cl)cc1 [1,4-dichlorobenzene] + O", "Henry's Law constant": "476 kPa·kg/mol"}
{"compound": "Cc1ccccc1C [1,2-dimethylbenzene] + O", "Henry's Law constant": "781 kPa·kg/mol"}
{"compound": "Cc1cccc(C)c1 [1,3-dimethylbenzene] + O", "Henry's Law constant": "1170 kPa·kg/mol"}

Supply recorded Henry's Law constant for CC(C)c1ccccc1 [isopropylbenzene] + O here.
1960 kPa·kg/mol

Supply recorded Henry's Law constant for CC(C)(C)c1ccccc1 [(1,1-dimethylethyl)benzene] + O here.
2070 kPa·kg/mol

Supply recorded Henry's Law constant for Clc1ccccc1 [chlorobenzene] + O here.
532 kPa·kg/mol

Supply recorded Henry's Law constant for CC1CCCCC1 [methylcyclohexane] + O here.
9440 kPa·kg/mol

Supply recorded Henry's Law constant for CCC(C)c1ccccc1 (configuration not stated) [(1-methylpropyl)benzene] + O here.
2690 kPa·kg/mol

Supply recorded Henry's Law constant for Cc1ccccc1 [toluene] + O here.
982 kPa·kg/mol

Supply recorded Henry's Law constant for c1ccccc1 [benzene] + O here.
832 kPa·kg/mol

Supply recorded Henry's Law constant for C=Cc1ccccc1 [styrene] + O here.
507 kPa·kg/mol

---

- testProtocol: Henry's Law constant (molality scale); of the first substance listed, at infinite dilution; mn = molality of the nth substance listed, in mol/kg
- studyConditions: 296.15 K; Liquid; Chromatography; m1 = 0
propertyLabel: Henry's Law constant (kPa·kg/mol)
Please give a number only; it is taken to be in kPa·kg/mol.

# example entries with known answers
{"compound": "CC1CCCCC1 [methylcyclohexane] + O", "unitSymbol": "kPa·kg/mol", "Henry's Law constant": 2010}
{"compound": "Clc1ccccc1 [chlorobenzene] + O", "unitSymbol": "kPa·kg/mol", "Henry's Law constant": 270}
{"compound": "c1ccccc1 [benzene] + O", "unitSymbol": "kPa·kg/mol", "Henry's Law constant": 528}
{"compound": "ClC(Br)Br [chlorodibromomethane] + O", "unitSymbol": "kPa·kg/mol", "Henry's Law constant": 85.7}
{"compound": "Cc1ccccc1 [toluene] + O", "unitSymbol": "kPa·kg/mol", "Henry's Law constant": 489}

Supply recorded Henry's Law constant for CC(C)c1ccccc1 [isopropylbenzene] + O here.
622

Supply recorded Henry's Law constant for Clc1ccc(Cl)c(Cl)c1 [1,2,4-trichlorobenzene] + O here.
83.2
